Entries and their melting point

Example cases with answers are listed next.
Tell me the measured melting point of `COCOc1c(NC(=O)NCc2cccnc2)cc(OC)cc1C(C)(C)C` , please.
108 to 109 °C

// returns reported melting point for input `Oc1cc(OCc2ccccc2)cc(OCc2ccccc2)c1`
107 to 109 °C

Fill in the blank: the reported melting point of CC(C(=O)NC(C)(C#N)C(C)C)c1ccc(Br)cc1 (centres undefined) is ____.
98 to 99 °C

Which melting point value belongs to `CS(=O)(=O)c1nccc(-c2nc(=O)c3ccccc3s2)n1` ?
270 °C

Find the recorded melting point belonging to `Cc1cnc(C)n1CC(=O)c1ccc(-c2ccc(N3C[C@H](Cn4ccnn4)OC3=O)cc2F)cn1` and report it.
112 to 115 °C

More entries:
Need melting point, item `CCc1nn2c(-c3cccnc3)ccnc2c1C#N`
170 to 172 °C

# lookup: melting point of `O=S(=O)(Nc1ccccc1O)c1ccc2ccccc2c1`
136 °C

Report melting point for CCC(c1ccc(NC(=O)Cc2ccccc2C)c([N+](=O)[O-])c1)n1ccnc1 (centres undefined) please.
122 °C

Fill in: melting point of OCC1OC(n2cnc3c(NNC4COc5c(Cl)cccc5C4)ncnc32)C(O)C1O (centres undefined) is ___
137 to 139 °C

* * *

melting point reference

Reference set, count: 4
Find the recorded melting point belonging to CCOC(=O)C1(NC=O)Cc2cccc3c2N(CCC3)C1=O (stereo not given) and report it.
103 to 106 °C

Give its melting point value. Item: `Cn1c(=O)cc(N)n(-c2ccc(Cl)cc2Cl)c1=O`
249 to 251 °C

Look up melting point: `COc1cn2nc(Cl)ccc2n1`
134 to 136 °C

Endpoint output: melting point of CN1CC(CO)C=C2c3cccc4c3c(cn4C(C)(C)C)CC21 (stereo not given) . Value?
181 to 183 °C

Consider the additional compound presented here.
// query melting point value for entry `CCc1nn(C2CCCC2)c2cc(C(=O)NCCC(=O)NOCc3ccccc3)ccc12`
134 to 136 °C

* * *

Reported melting point values for the following compounds.

Worked set:
Query: melting point; subject: `c1ccc2c(c1)CCN2Nc1ccncc1`
125 to 126 °C

What measured melting point goes with COC(=O)C1(C(N)=O)OC1c1ccccc1 (stereo unspecified) ?
175 to 177 °C

Using the record for `Cc1cc2cc(CN3CCCC3)cnc2cc1NC(=O)c1ccc(-c2ccc(F)cc2F)cc1` , report its melting point.
158 to 160 °C

Returns the measured melting point for the input compound. Input: `CCOC(=O)Cc1c(CCc2ccc(OC)cc2)oc2ccc(C#N)cc12`
85 to 86 °C

Which value of melting point has been reported for `ON=Cc1c(Br)ccc2c1OCO2` in the records?
239 to 240 °C

Continuing:
Any idea what its melting point is? The compound is `O=C(NCc1ccc(Cl)cc1)c1cn(Cc2cccc(F)c2)c2sc(CN3CCOCC3)cc2c1=O`
214 to 215 °C

* * *

Measurement name: melting point

// solved cases for melting point follow
Data request, read-out melting point, for `N#Cc1cccc(N2C(=O)CC(=O)Nc3c2ccc2c3CCC2)c1`
250 to 251 °C

# lookup: melting point of CCC(=O)OCC(OC(=O)CC)C1OC(SC)C(OC(=O)CC)C1OC(=O)CC (stereo not drawn)
62 to 63 °C

Which melting point value is on record for `O=CN1CCN(Cc2nc3ccccc3[nH]2)CC1` ?
194 to 198 °C

What value of measured melting point is listed for `C[C@@H](n1cnc2cc(-c3ccc(Cl)cc3)sc2c1=O)[C@](O)(Cn1cncn1)c1ccc(Cl)cc1Cl` ?
132 to 136 °C

Entry `NC(=O)c1cccc(-c2ccc(F)c3cc(Cc4cccc(C(F)(F)F)c4)sc23)c1` has what melting point?
139 to 140 °C

Data request, read-out melting point, for `CCOc1cc2c(Cl)cc(C)nc2nc1C`
144 to 147 °C

Form field: reported melting point of `Cc1nn(C)c2c(Cl)nc(C(C)C)nc12`
87 to 89 °C

# query: melting point of entry `Nc1cc(=O)n(Cc2ccccc2C(F)(F)F)[nH]1`
184 °C

Quick one: melting point for `CSc1nc(-c2ccncc2)nc(=O)n1C` ?
216 to 218 °C

melting point lookup needed for `COc1ccc(S(=O)(=O)N2CCc3cccc(-c4ccc(C=CC(=O)NO)cc4)c32)cc1` , thanks.
200 to 201 °C

Continuing:
Returns the measured melting point for the input compound. Input: `O=c1cc(S)oc2ccccc12`
207 to 208 °C

Would you kindly share the measured melting point for Nc1nc(N)c2c(n1)NCC(CCc1ccc(C(=O)N[C@@H](CCC(=O)O)C(=O)O)cc1)C2 (stereo partly drawn) ?
> 250 °C

Which measured melting point value corresponds to `COc1ccc(-c2nc(Sc3ccc(Cl)c(Cl)c3)[nH]c2-c2ccc(OC)cc2)cc1` ?
113 to 115 °C

* * *

Measurement name: melting point

# query: melting point of entry `Cc1ccc(C(=S)CCCCCl)cc1`
87 to 89 °C

Bench note: what melting point did `COc1cc(CC(C)=O)c([N+](=O)[O-])cc1Cl` show?
114 to 115 °C

Item CC1(COc2ccc([N+](=O)[O-])cc2)CC(=O)c2cc(O)c(C(C)(C)C)cc2O1 (stereo not given) has what recorded melting point?
205 to 209 °C

---
Field request: melting point | item: CC(=O)N1c2cc(Cl)ccc2Sc2ccc(C(C)N(O)C(N)=O)cc21 (stereo not given)
157 to 159 °C

Item `O=[N+]([O-])c1ccc(SCCc2c[nH]cn2)cc1` has what recorded melting point?
167 to 168 °C

For the compound shown here, `Cn1c(CO)nc2c(N)cc(Br)cc21` , give the reported melting point.
216 to 218 °C

Item CC(C)SC1CCC(=O)N1 (stereo not given) has what recorded melting point?
77 to 79 °C

# lookup: melting point of `COc1ccc2c(c1)CCC(=C(O)C(F)F)C2=O`
52 to 54 °C

Request the reported melting point associated with `Cc1cc(C)nc(S(=O)(=O)Nc2c(Cl)cccc2Cl)n1`
261 to 263 °C

I am curious: what melting point value has been reported for `Nc1nc(-n2cc(C(=O)O)c(=O)c3cc(F)c(F)c(Cl)c32)c(F)cc1Cl` ?
280 °C

For the compound `COc1ccc(-c2cccs2)cc1OC1CCCC1` , what melting point is on record?
67 to 68 °C

Reported melting point for `Cc1nc(N2CCN(Cc3ccc(F)cc3)C2=O)sc1C(=O)NCc1ccccn1` : what is it?
183 to 185 °C

Which melting point is reported for this compound? `COc1ccccc1Oc1c(NS(=O)(=O)c2ccc(C(C)(C)C)cc2)nc(NCCN(C)C)nc1OCCOc1ncc(Br)cn1`
129 to 132 °C

# input compound: CN(Cc1ncco1)C1CCCN(C(=O)c2ccc(Nc3nccc(Nc4ccc(F)cc4)n3)cc2)C1 (stereo not given) ; wanted: its melting point
155 to 157 °C

Look at this compound and give its reported melting point. CC(CCCI)C(=O)Nc1nnc(C(C)(C)C)s1 (stereo not given)
102 °C

* * *

Measurement name: melting point

# count of solved cases: 2
Can you look up the measured melting point of `CSCc1cn(C)c2cc(C(C)(C)C)ccc2c1=O` for me?
114 to 116 °C

Name the recorded melting point for `Cc1cc(I)cc2c1oc(=O)n2C` .
100 to 101 °C

Next:
Which measured melting point value corresponds to `COc1ccc2cc(CCC3(C)OCCO3)cc(F)c2c1` ?
51 to 53 °C

* * *

melting point: recorded values

Look over these answered cases.
melting point for `CSC(=CC(=O)c1cccc(C(F)(F)F)c1)SC` ?
89.5 °C

I am curious: what melting point value has been reported for `CCc1cc(C=O)ccc1N=C1SCC2(CCCC2)N1C1CCCC1` ?
104 to 105 °C

May I ask what melting point has been recorded for `COc1cc(Nc2nccc(Nc3ccc(N4CCN(C)CC4)cc3)n2)cc(OC)c1OC` ?
104 °C

Can you look up the measured melting point of `CC(C)C[C@H](NS(=O)(=O)c1ccccc1)C(=O)NC(C)(C)C(=O)c1c(-c2ccccc2)c1=O` for me?
53 to 59 °C

# get_value(readout='melting point', item= `CCC(CC)NC1=NS(=O)(=O)c2ccc(Cl)cc2N1` )
224 to 226 °C

More entries:
Query (molecule): Cc1c(C)c2c(c(C)c1NC(=O)CC(C)(C)C)C(O)(c1ccccn1)C(C)(C)O2 (stereo not drawn) ; field requested: melting point
205 to 207 °C

Please report the recorded melting point for `NS(=O)(=O)Nc1ccc(CCN2CCC(COC(c3ccccc3)c3ccccc3)CC2)cc1` .
172 to 174 °C

Endpoint output: melting point of `CC1(C)Cc2ccc(C#N)cc2N(C(=O)Nc2ccccc2)C1` . Value?
170 to 171 °C

// lookup melting point for CC1CC(=O)C=C(c2ccc(OCC(=O)O)c(Cl)c2Cl)C1 (stereo not drawn)
187 to 190 °C

Can you share its melting point? I mean this molecule: `CCCCCCCCCCC=CCc1c[nH]c(C=O)c1`
29 to 32 °C

# input molecule: `CCOc1cc2c(cc1OCC)CCC(C(=O)N1CCN(C(=O)c3cc(OC)c(OC)c(OC)c3)CC1)=C2` ; wanted: its melting point
127 to 129 °C

Param item = `COc1c(C)c(C)c(OC)c(C=CC(=O)C(=O)O)c1C` ; retrieve measured melting point.
126 to 127 °C

Quick check: melting point of `O=c1cc(Oc2c(Cl)cccc2Cl)c2cc(OC(F)F)ccc2o1` ?
145 to 148 °C

Endpoint output: melting point of CCCCCCCCCCCCCCCC(Br)CC(=O)O (stereo not drawn) . Value?
47 to 51 °C

Can you share its melting point? I mean this molecule: `CSc1ccc(N=Cc2ccc(Cl)cc2)cc1`
203 to 205 °C

Name the recorded melting point for `CSc1ccnc(Oc2cc(C#N)cc(C#N)c2)n1` .
237 °C

What melting point value was documented for this molecule, COC(=O)C12Cc3cc(Cl)ccc3C1=NN(C(=O)N(C)c1ccc(OC(F)(F)F)cc1)CO2 (stereo not drawn) ?
130 to 131 °C

Can you share its melting point? I mean this molecule: `COc1ccc2cc([C@H](C)C(=O)OCCN(C)C(=O)c3ccc(CO[N+](=O)[O-])cc3)ccc2c1`
108 to 115 °C

May I ask what melting point has been recorded for OC1CSC(Oc2ccc(-c3ccc(Cl)nc3)nc2)C(O)C1O (stereo not drawn) ?
170 °C

Using the record for Cc1csc(CNC(=O)c2sc(N3CCN(CC4CC4(F)F)C3=O)nc2C)n1 (stereo not drawn) , report its melting point.
157 to 159 °C

Consider the molecule shown here: `CCOC(=O)c1cc(Cl)c(Cl)c(C2=NOCC2)c1C` What is its recorded melting point?
96 to 97 °C

Record request: melting point value, item `CC(=O)C1=C(C)c2ccccc2C1(C)C`
104 to 105 °C

What measured melting point goes with `NNP(=S)(Oc1ccccc1)Oc1ccccc1` ?
59 to 61 °C
